target: T1, TAZ1 domain of mouse CBP (residues 340–439) (mouse, UniProt P45481 340-439)
T1 construct: Isotopically labelled in some NMR samples; also called CBP–TAZ1; CH1; source: purified
T1 sequence (P45481 340-439): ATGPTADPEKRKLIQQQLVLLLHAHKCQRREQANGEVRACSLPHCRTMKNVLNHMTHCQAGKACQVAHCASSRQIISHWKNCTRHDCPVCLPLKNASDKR
experimental details: ITC; TAZ1 (169 to 185 µM) in the syringe, GB1-tagged RelA–TA2 peptide (10 to 18 µM) in the cell; 25°C; 20 mM Tris pH 8.0, 50 mM NaCl, 1 mM DTT; single-binding site model
measurement conditions: both partners purified
Some binders, each annotated with its measured Kd.
Value expressed in nM; do not type the unit.

{"binder": "GB1-tagged RelA–TA2 fragment 425–508 wt (domain or fragment, mouse, UniProt Q04207 425-508, looked up, GB1 is the 58-residue B1 domain of streptococcal protein G, kept for concentration determination; also called RelA–TA2 fragment of Lys425–Arg508; source: expressed as His6-GB1 fusion, purified; His6-tag cleaved by TEV protease; not shown: His6, N-terminal, cleaved; GB1, N-terminal, kept) KSTQAGEGTLSEALLHLQFDADEDLGALLGNSTDPGVFTDLASVDNSEFQQLLNQGVSMSHSTAEPMLMEYPEAITRLVTGSQR", "Kd (nM)": 57}

Consider the record given below.
Qu. Can you look up the measured Kd of GB1-tagged RelA–TA2 fragment 425–508 (S467D) (domain or fragment, mouse, UniProt Q04207 425-508, looked up, also called RelA(Ser467Asp); phosphomimetic mutant; source: expressed as His6-GB1 fusion, purified; His6-tag cleaved by TEV protease; not shown: His6, N-terminal, cleaved; GB1, N-terminal, kept) KSTQAGEGTLSEALLHLQFDADEDLGALLGNSTDPGVFTDLADVDNSEFQQLLNQGVSMSHSTAEPMLMEYPEAITRLVTGSQR for me?
Ans. 41.2
